Each item that follows carries a reported viability at 0.5 µM.
Assay method text: Cytotoxicity against LPS-induced human monocytes assessed as cell viability at 0.5 uM by tryphan blue staining based assay relative to control
Design: species or system Monocyte
Conditions used: read-out: Activity
Field: numeric (%). Do not append units.

* O=C1c2ccccc2C(=O)N1c1ccc(F)c(F)c1 | 92

Kindly consider the entry below.
query: Report viability at 0.5 µM for CCC1(N2C(=O)c3ccccc3C2=O)C(=O)NC(=O)N(c2ccccc2)C1=O (configuration not stated)
result: 87

* * *

Assay method text: Cytotoxicity against LPS-induced human monocytes assessed as cell viability at 5 uM by tryphan blue staining based assay relative to control
Set-up: species or system Monocyte
Conditions used: read-out: Activity
Measured parameter: viability at 5 µM (%)
Could you give me the number in %? Just the number is fine.

• O=C1c2ccccc2C(=O)N1c1ccc(F)c(F)c1 = 95

query: Output measured viability at 5 µM for this item: CCC1(N2C(=O)c3ccccc3C2=O)C(=O)NC(=O)N(c2ccccc2)C1=O (configuration not stated)
result: 80

* * *

Assay method text: Drug excretion in rat urine at 400 mg/kg, sc administered as single dose measured after 30 days
Assay type: ADME, organism-based
Conditions used: read-out: Drug excretion
Entries and their dose excreted at 720 h
I only need the number, in %, no unit after it.

* CC(=O)Nc1ccc(S(=O)(=O)c2ccc(NC(C)=O)cc2)cc1 | 7
* CC(=O)N(C)c1ccc(S(=O)(=O)c2ccc(N(C)C(C)=O)cc2)cc1 | 85
* Nc1ccc(S(=O)(=O)c2ccc(N)cc2)cc1 | 57
* CC(=O)Nc1ccc(S(=O)(=O)c2ccc(/N=C/c3ccc(/C=N/c4ccc(S(=O)(=O)c5ccc(NC(C)=O)cc5)cc4)cc3)cc2)cc1 | 40
* CC(=O)Nc1ccc(S(=O)(=O)c2ccc(N)cc2)cc1 | 50

query: Answer with reported dose excreted at 720 h of CC(=O)Nc1ccc(S(=O)(=O)c2ccc(N(C)C(C)=O)cc2)cc1
result: 44

query: Using known records, supply dose excreted at 720 h for CC(=O)Nc1ccc(S(=O)(=O)c2ccc(NC(C)=O)c(C)c2)cc1
result: 31

* * *

System: Mycolicibacterium smegmatis
Assay method text: Antimicrobial activity against Mycobacterium smegmatis incubated for 30 to 32 hrs under shaking condition
Format: functional
Recorded MIC values for a group of compounds are listed next.
Please state the figure in µM; there is no need to write the unit.

Illustrative cases are given below, each with its answer.
* CCn1cc(C(=O)N/N=C\c2cccc(O)c2)c(=O)c2cc(F)c(N3CCN(C)CC3)cc21 | 27.2
* CCn1cc(C(=O)N/N=C\c2cc(OC)c(OC)c(OC)c2)c(=O)c2cc(F)c(N3CCN(C)CC3)cc21 | 81.2
* CCn1cc(C(=O)N/N=C\c2ccc(C)cc2)c(=O)c2cc(F)c(N3CCN(C)CC3)cc21 | 42.5

Note: attention shifts to another entry.
query: Identify measured MIC corresponding to CCn1cc(C(=O)N/N=C\c2c(Cl)cccc2Cl)c(=O)c2cc(F)c(N3CCN(C)CC3)cc21
result: 27

* * *

Assay method text: Plasma concentration in rifampin-susceptible Mycobacterium leprae infected in BALB/c mouse at 6 mg/kg administered with food daily for 4 weeks by high-pressure liquid chromatography analysis
Assay type: ADME, organism-based
Conditions used: po
Measured parameter: concentration at 672 h (ng/mL)
Output spec: scalar in ng/mL, unitless text.

* OO [HYDROGEN PEROXIDE] | 55

Now for another entry.
query: Supply measured concentration at 672 h of CO[C@H]1/C=C/O[C@@]2(C)Oc3c(C)c(O)c4c(c3C2=O)C2=NC3(CCN(CC(C)C)CC3)NC2=C(NC(=O)/C(C)=C\C=C\[C@H](C)[C@H](O)[C@@H](C)[C@@H](O)[C@@H](C)[C@H](OC(C)=O)[C@@H]1C)C4=O [RIFABUTIN] in your reply.
result: 510

* * *

System: Mycolicibacterium smegmatis
Assay method text: Inhibition of Mycobacterium smegmatis ATCC 607 dihydrofolic reductase assessed as ratio of Km to Ki
Measured parameter: Ratio
Give only the figure.

• COc1cc(CCc2cnc3nc(N)nc(N)c3n2)cc(OC)c1OC = 2050

query: Quote Ratio reported for CN(Cc1cnc2nc(N)nc(N)c2n1)c1ccc(C(=O)N[C@@H](CCC(=O)O)C(=O)O)cc1 [METHOTREXATE] please.
result: 11700

query: Answer with the recorded Ratio for the compound listed here: CCCCCc1cnc2nc(N)nc(N)c2n1
result: 3420

query: # return recorded Ratio for input COc1cc(Cc2cnc3nc(N)nc(N)c3n2)cc(OC)c1OC
result: 230

query: Supply reported Ratio belonging to this compound: Nc1nc(N)c2nc(CNc3ccc(C(=O)N[C@@H](CCC(=O)O)C(=O)O)cc3)cnc2n1
result: 23100

query: Fill in reported Ratio for this entry: Nc1nc(N)c2nc(Cc3ccccc3)cnc2n1
result: 4560

* * *

Test system: Enterococcus faecalis
Assay method text: Antimicrobial activity against Enterococcus faecalis ATCC 51922 by broth microdilution assay
Type: functional
Measured parameter: MIC (mg/L)
Respond with the bare value in mg/L.

* Oc1ccc(/C=N/NC(=S)Nc2ccc(C(F)(F)F)cc2)cc1 | 400
* O=[N+]([O-])c1ccc(/C=N/NC(=S)Nc2ccc(C(F)(F)F)cc2)cc1 | 400

query: Note MIC for the compound shown: CN(C)c1ccc(/C=N/NC(=S)Nc2ccc(C(F)(F)F)cc2)cc1
result: 400

query: Consider the compound CC(C)c1ccc(/C=N/NC(=S)Nc2ccc(C(F)(F)F)cc2)cc1 . State its measured MIC.
result: 400

query: Give the measured MIC for FC(F)(F)c1ccc(/C=N/NC(=S)Nc2ccc(C(F)(F)F)cc2)cc1
result: 400

* * *

Activity values for the molecules below.
Tested on: Rattus norvegicus
Assay method text: Effect of metallo-protein haemoglobin in rat assessed as peak methemoglobin level at 400 mg/kg, sc administered as single dose
Type: ADME, organism-based
Conditions used: in vivo
Please respond with the number in g/dL and leave the unit unwritten.

The following molecules have reported results that may help.
* Nc1ccc(S(=O)(=O)c2ccc(N)cc2)cc1 [DAPSONE] | 3.9
* CC(=O)Nc1ccc(S(=O)(=O)c2ccc(N)cc2)cc1 [MONO-N-ACETYL DAPSONE] | 1.2
* CC(=O)Nc1ccc(S(=O)(=O)c2ccc(NC(C)=O)cc2)cc1 [ACEDAPSONE] | 0
* CC(=O)Nc1ccc(S(=O)(=O)c2ccc(NC(C)=O)c(C)c2)cc1 | 1

Proceed to the following item.
query: Write down the reported Activity (system: Rattus norvegicus) of CC(=O)Nc1ccc(S(=O)(=O)c2ccc(/N=C/c3ccc(/C=N/c4ccc(S(=O)(=O)c5ccc(NC(C)=O)cc5)cc4)cc3)cc2)cc1
result: 0.2

* * *

We begin with a simple list: items and their reported MIC.
Test system: Mycolicibacterium vaccae
Assay method text: Antimicrobial activity against Mycobacterium vaccae incubated for 24 hrs by broth microdilution assay
Assay type: functional
Express your answer in µg/mL, writing the number without its unit.

Study these solved cases before continuing.
• N#Cc1cc([N+](=O)[O-])cnc1SC(=S)N1CCCC1 = 1.56
• NC(=O)c1cc([N+](=O)[O-])cc([N+](=O)[O-])c1SC(=S)N1CCCC1 = 0.4
• CN(C)c1ncnc(SC(=S)N2CCCC2)c1[N+](=O)[O-] = 1.56

query: Return MIC (reported value) for this compound: O=C(O)c1cn(C2CC2)c2cc(N3CCNCC3)c(F)cc2c1=O
result: 0.4

query: Entry COc1ncnc(SC(=S)N2CCCC2)c1[N+](=O)[O-] needs its MIC filled in; supply it.
result: 0.8

query: In one line, give reported MIC of the entry N#Cc1cc([N+](=O)[O-])cnc1SC(=S)N1CCCCCC1 .
result: 0.4

query: Retrieve MIC measured for N#Cc1cc([N+](=O)[O-])cnc1SC(=S)N1CCCCC1 and print it.
result: 1.56

* * *

The following compounds are shown together with reported viability at 50 µM values.
Assay method text: Cytotoxicity against LPS-induced human monocytes assessed as cell viability at 50 uM by tryphan blue staining based assay relative to control
Design: species or system Monocyte
Conditions used: read-out: Activity
Numeric answer only, unit % assumed.

Use these answered entries as a reference point.
• O=C1c2c(F)c(F)c(F)c(F)c2C(=O)N1c1cnc(O)nc1O = 95
• O=C1c2ccccc2C(=O)N1c1ccc(F)c(F)c1 = 78
• O=C1c2c(F)c(F)c(F)c(F)c2C(=O)N1c1cn(-c2ccccc2)c(=O)[nH]c1=O = 95
• O=C1c2cccc([N+](=O)[O-])c2C(=O)N1c1cn(-c2ccccc2)c(=O)[nH]c1=O = 90
• CCC1(N2C(=O)c3ccccc3C2=O)C(=O)NC(=O)N(c2ccccc2)C1=O (configuration not stated) = 68
• O=C1c2c(F)c(F)c(F)c(F)c2C(=O)N1c1ccc(F)c(F)c1 = 74
• CCC1(N2C(=O)c3c(F)c(F)c(F)c(F)c3C2=O)C(=O)NC(=O)N(c2ccccc2)C1=O (configuration not stated) = 68
• O=C1c2ccccc2C(=O)N1c1cnc(O)nc1O = 91
• Nc1ccc(F)c(F)c1 = 99
• O=C1CCC(N2C(=O)c3ccccc3C2=O)C(=O)N1 (configuration not stated) [THALIDOMIDE] = 98

query: Specify measured viability at 50 µM for CCC1(N2C(=O)c3ccccc3C2=O)C(=O)NC(=O)N(C2CCCCC2)C1=O (configuration not stated) .
result: 87

query: State its viability at 50 µM for this compound: CCC1(N2C(=O)c3cccc([N+](=O)[O-])c3C2=O)C(=O)NC(=O)N(c2ccccc2)C1=O (configuration not stated)
result: 77
